# Target System: HLA-DR DRB3*0101 (DR52) (Homo sapiens, UniProt P01903+P79483)
# Experiment Summary: biochemical
# Type: binding
Experimental Endpoint: pIC50
Notebook: values listed as pIC50 are -log10 of the concentration (mol/L).

1. CC[C@H](C)[C@H](NC(=O)[C@H](CO)NC(=O)[C@H](CC(N)=O)NC(=O)[C@H](C)NC(=O)[C@H](CC(C)C)NC(=O)[C@H](CCC(=O)O)NC(=O)[C@H](Cc1ccccc1)NC(=O)[C@@H](NC(=O)[C@H](CCSC)NC(=O)CN)C(C)C)C(=O)N[C@H](C(=O)N[C@@H](CC(C)C)C(=O)N1CCC[C@H]1C(=O)N[C@@H](Cc1ccccc1)C(=O)N[C@@H](CC(=O)O)C(=O)O)C(C)C	6.63
2. CSCC[C@H](NC(=O)[C@H](CC(C)C)NC(=O)[C@@H]1CCCN1C(=O)[C@@H](NC(=O)[C@H](CS)NC(=O)[C@H](CC(=O)O)NC(=O)[C@@H](NC(=O)[C@H](CCCNC(=N)N)NC(=O)[C@H](CC(C)C)NC(=O)[C@@H](NC(=O)[C@H](Cc1ccc(O)cc1)NC(=O)[C@@H](N)CC(N)=O)[C@@H](C)O)C(C)C)[C@@H](C)O)C(=O)N[C@@H](Cc1ccc(O)cc1)C(=O)N[C@@H](CO)C(=O)N[C@@H](CC(C)C)C(=O)O	7.60

Next molecule, please.
Q: Answer with the recorded pIC50 of CC[C@H](C)[C@H](NC(=O)CNC(=O)[C@H](CC(C)C)NC(=O)[C@H](CC(C)C)NC(=O)[C@H](CCCNC(=N)N)NC(=O)[C@H](CO)NC(=O)[C@@H](NC(=O)[C@H](Cc1ccc(O)cc1)NC(=O)[C@@H]1CCCN1C(=O)[C@H](CO)NC(=O)CNC(=O)[C@@H](NC(=O)CN)C(C)C)C(C)C)C(=O)N[C@@H](CS)C(=O)N[C@@H](CC(C)C)C(=O)O only.
Result: 3.83

###

The entries below are paired with their reported pIC50.
# Target System: HLA-DR DRB1*0301 (DR3) (Homo sapiens, UniProt P01903+P01911, A100K/A102G/A103R/A169T/F55Y/I96L/K41T/L162R/M171V/P40S/Q125H/Q178H/Q39Y/R42S/S66N/T106N/T262R/W38E/Y61H)
# Experiment Summary: biochemical
# Type: binding
Notebook: values listed as pIC50 are -log10 of the concentration (mol/L).

1. CC[C@H](C)[C@H](NC(=O)[C@@H](N)CCCCN)C(=O)N[C@@H](Cc1ccccc1)C(=O)NCC(=O)N[C@@H](CO)C(=O)N[C@@H](CC(C)C)C(=O)N[C@@H](C)C(=O)N[C@@H](Cc1ccccc1)C(=O)N[C@@H](CC(C)C)C(=O)N1CCC[C@H]1C(=O)N[C@@H](CCC(=O)O)C(=O)N[C@@H](CO)C(=O)N[C@@H](Cc1ccccc1)C(=O)N[C@@H](CC(=O)O)C(=O)NCC(=O)N[C@@H](CC(=O)O)C(=O)N1CCC[C@H]1C(=O)N[C@@H](C)C(=O)O	4.13
2. CC[C@H](C)[C@H](NC(=O)[C@H](CCCCN)NC(=O)[C@H](CC(N)=O)NC(=O)[C@@H](NC(=O)[C@@H](NC(=O)[C@H](CC(C)C)NC(=O)[C@@H](NC(=O)[C@H](CO)NC(=O)[C@H](CC(C)C)NC(=O)[C@H](C)N)[C@@H](C)O)C(C)C)C(C)C)C(=O)N[C@@H](CCCNC(=N)N)C(=O)NCC(=O)N[C@H](C(=O)N[C@@H](Cc1ccccc1)C(=O)N[C@@H](CCCCN)C(=O)O)[C@@H](C)O	6.56
3. CC[C@H](C)[C@H](NC(=O)[C@H](CC(C)C)NC(=O)[C@H](CCCCN)NC(=O)[C@H](CCCCN)NC(=O)[C@@H](N)Cc1ccc(O)cc1)C(=O)N[C@@H](CCSC)C(=O)N[C@@H](Cc1ccc(O)cc1)C(=O)N[C@@H](CO)C(=O)N[C@@H](C)C(=O)N[C@@H](Cc1c[nH]cn1)C(=O)N[C@@H](CC(=O)O)C(=O)N[C@H](C(=O)N[C@H](C(=O)N[C@H](C(=O)N[C@@H](CO)C(=O)O)C(C)C)[C@@H](C)O)[C@@H](C)O	4.64
4. CC(C)C[C@H](NC(=O)[C@H](C)NC(=O)[C@H](Cc1ccccc1)NC(=O)[C@@H](N)[C@@H](C)O)C(=O)N[C@@H](Cc1c[nH]c2ccccc12)C(=O)N[C@@H](CCCNC(=N)N)C(=O)N[C@H](C(=O)N[C@@H](CO)C(=O)N[C@@H](C)C(=O)N[C@@H](CCC(=O)O)C(=O)N[C@@H](CCC(=O)O)C(=O)N[C@@H](Cc1ccc(O)cc1)C(=O)O)C(C)C	4.05
5. CC[C@H](C)[C@H](NC(=O)[C@H](CCC(=O)O)NC(=O)[C@@H](NC(=O)[C@H](Cc1ccc(O)cc1)NC(=O)[C@H](CCC(=O)O)NC(=O)[C@@H](N)CCC(=O)O)C(C)C)C(=O)N[C@@H](CCCNC(=N)N)C(=O)N[C@@H](CCC(N)=O)C(=O)N[C@H](C(=O)NCC(=O)N[C@@H](CC(=O)O)C(=O)N[C@@H](Cc1ccccc1)C(=O)N[C@@H](Cc1c[nH]cn1)C(=O)O)C(C)C	4.13

Q: Answer with the recorded pIC50 of CC[C@H](C)[C@H](NC(=O)[C@H](CO)NC(=O)[C@@H](NC(=O)CN)C(C)C)C(=O)N[C@@H](Cc1c[nH]c2ccccc12)C(=O)N[C@@H](CC(N)=O)C(=O)N1CCC[C@H]1C(=O)N[C@H](C(=O)N[C@@H](CC(C)C)C(=O)N[C@@H](CC(C)C)C(=O)N[C@@H](Cc1c[nH]c2ccccc12)C(=O)N[C@@H](CCC(N)=O)C(=O)N1CCC[C@H]1C(=O)N[C@H](C(=O)N1CCC[C@H]1C(=O)O)[C@@H](C)CC)[C@@H](C)CC only.
Result: 4.25

Q: Answer with the recorded pIC50 of CC[C@H](C)[C@H](NC(=O)[C@H](CS)NC(=O)[C@H](Cc1c[nH]cn1)NC(=O)[C@H](C)NC(=O)[C@H](C)NC(=O)[C@@H](NC(=O)[C@H](CC(C)C)NC(=O)[C@@H](NC(=O)[C@H](Cc1c[nH]c2ccccc12)NC(=O)[C@H](CCC(N)=O)NC(=O)[C@@H]1CCCN1C(=O)[C@@H](N)Cc1c[nH]cn1)C(C)C)[C@@H](C)O)C(=O)N[C@@H](CCCNC(=N)N)C(=O)N[C@@H](CC(N)=O)C(=O)N[C@@H](CCCCN)C(=O)O only.
Result: 5.44

###

The entries below are paired with their reported pIC50.
# Target System: HLA-DR DRB1*1101 (DR11) (Homo sapiens, UniProt P01903+P01911, A100R/A169T/A87E/I96F/K41T/L162R/M171V/P40S/Q125H/Q178H/Q39Y/Q99D/R42S/S66Y/T262R/V115G/W38E)
# Sequence (P01903 26-254 limits assumed, other chains not shown): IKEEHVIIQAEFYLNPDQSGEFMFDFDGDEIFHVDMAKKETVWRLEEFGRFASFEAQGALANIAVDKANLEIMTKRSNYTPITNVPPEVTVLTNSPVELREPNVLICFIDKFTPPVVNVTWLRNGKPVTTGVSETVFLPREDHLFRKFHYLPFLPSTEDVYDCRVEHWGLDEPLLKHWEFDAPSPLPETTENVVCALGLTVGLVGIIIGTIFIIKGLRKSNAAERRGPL
# Experiment Summary: biochemical
# Assay type: binding
Notebook: values listed as pIC50 are -log10 of the concentration (mol/L).

Past entries and their recorded results:
1) CC[C@H](C)[C@H](NC(=O)[C@H](C)NC(=O)[C@H](CCC(N)=O)NC(=O)[C@H](CCCNC(=N)N)NC(=O)[C@H](CC(C)C)NC(=O)[C@H](C)NC(=O)[C@@H](NC(=O)[C@H](Cc1c[nH]cn1)NC(=O)[C@H](Cc1c[nH]cn1)NC(=O)[C@@H]1CCCN1)[C@@H](C)O)C(=O)N[C@@H](CC(C)C)C(=O)N[C@@H](CO)C(=O)N[C@@H](Cc1c[nH]c2ccccc12)C(=O)NCC(=O)N[C@@H](CCC(=O)O)C(=O)N[C@@H](CC(C)C)C(=O)N[C@@H](CCSC)C(=O)N[C@H](C(=O)N[C@@H](CC(C)C)C(=O)N[C@@H](C)C(=O)O)[C@@H](C)O	5.51
2) CC[C@H](C)[C@H](N)C(=O)N[C@@H](C)C(=O)NCC(=O)N[C@@H](CC(C)C)C(=O)N[C@@H](Cc1ccccc1)C(=O)N[C@@H](CC(C)C)C(=O)N[C@H](C(=O)N[C@H](C(=O)N[C@@H](CCC(=O)O)C(=O)N[C@@H](C)C(=O)N[C@H](C(=O)N[C@H](C(=O)N[C@@H](C)C(=O)N[C@@H](CC(=O)O)C(=O)N[C@@H](CCCCN)C(=O)O)C(C)C)C(C)C)[C@@H](C)O)[C@@H](C)O	6.06

Q: Answer with the recorded pIC50 of CC[C@H](C)[C@H](NC(=O)[C@H](CCCCN)NC(=O)[C@H](CC(N)=O)NC(=O)[C@@H](NC(=O)[C@@H](NC(=O)[C@H](CC(C)C)NC(=O)[C@@H](NC(=O)[C@H](CO)NC(=O)[C@H](CC(C)C)NC(=O)[C@H](C)NC(=O)[C@H](CCC(=O)O)NC(=O)CN)[C@@H](C)O)C(C)C)C(C)C)C(=O)N[C@@H](CCCNC(=N)N)C(=O)NCC(=O)N[C@H](C(=O)O)[C@@H](C)O only.
Result: 6.01
